target-or-system: HIV integrase (Human immunodeficiency virus type 1 group M subtype B)
assay-notes: integrase inhibition assay (microtiter plate, substrate DNA / target DNA)
Assay type: biochemical
experimental-setup: integrase 30 pmol, incubated at 30° C. for 1 hour, OD at 405 nm; concentration at percent inhibition 50%; read-out: MIA, IC50 (ug/ml) (converted)
Strictly below 800 nM in IC50: fulfilled. Otherwise: not fulfilled.

> print(dat)
                            smiles.notation  category.label
1  CCOC(=O)Nc1cc(C(=O)OC)c(O)c2ncc(Cc3ccc(F)cc3)cc12       fulfilled
2  COC(=O)c1cc(C(=O)NCCO)c2cc(Cc3ccc(F)cc3)cnc2c1O       fulfilled
3  COC(=O)c1cc(NC(C)=O)c2cc(Cc3ccc(F)cc3)cnc2c1O   not fulfilled
4  COC(=O)c1cc(NC=O)c2cc(Cc3ccc(F)cc3)cnc2c1O   not fulfilled
5  COC(=O)c1cc(N2CCOC2=O)c2cc(Cc3ccc(F)cc3)cnc2c1O       fulfilled
6  COCCC(=O)Nc1nc(C(=O)OC)c(O)c2ncc(Cc3ccc(F)cc3)cc12       fulfilled
7  COC(=O)c1cc(-c2n[nH]c(C)n2)c2cc(Cc3ccc(F)cc3)cnc2c1O       fulfilled
8  COC(=O)c1nc(C#CCNS(C)(=O)=O)c2cc(Cc3ccc(F)cc3)cnc2c1O       fulfilled
9  CN=C(Nc1cc(C(=O)OC)c(O)c2ncc(Cc3ccc(F)cc3)cc12)SC   not fulfilled

###

quantity-kind: melting point

> print(dat)
                                   compound  quantity.kind  recorded.value
1  COC(=O)CCc1cc(C(=O)OC)c(O)c2c1CC(Cc1ccc(F)cc1)CN2 (centres unmarked)  melting point   140 to 141 °C
2  COC(=O)c1cc(CC(=O)O)c2cc(Cc3ccc(F)cc3)cnc2c1O  melting point   218 to 220 °C
3  COC(=O)c1cc(C(=O)NN2CCCCC2)c2cc(Cc3ccc(F)cc3)cnc2c1O  melting point   233 to 234 °C
4  COC(=O)c1cc(C(=O)N(C)CC(=O)N(C)C)c2cc(Cc3ccc(F)cc3)cnc2c1O  melting point    99 to 100 °C
5  CC(=O)N1CCC(OC(=O)c2cc(C(=O)NCCCO)c3cc(Cc4ccc(F)cc4)cnc3c2O)CC1  melting point     97 to 99 °C

###

melting point values, listed per item
quantity-kind: melting point

> print(dat)
                             smiles.notation  quantity.kind   recorded.value
 1  COC(=O)c1nc(NC(=O)Nc2ccccc2)c2cc(Cc3ccc(F)cc3)cnc2c1O  melting point    254 to 255 °C
 2  COC(=O)c1cc(C(=O)NC2CCOCC2)c2cc(Cc3ccc(F)cc3)cnc2c1O  melting point    246 to 247 °C
 3  COC(=O)c1cc(C(N)=O)c2cc(Cc3ccc(F)cc3)cnc2c1OC(C)=O  melting point           206 °C
 4  COC(=O)c1cc(C=CC(=O)O)c2cc(Cc3ccc(F)cc3)cnc2c1O  melting point    235 to 237 °C
 5  COC(=O)c1cc(N(C)C)c2cc(Cc3ccc(F)cc3)cnc2c1O  melting point      62 to 63 °C
 6  COC(=O)c1cc(NC(=O)c2cc(C)on2)c2cc(Cc3ccc(F)cc3)cnc2c1O  melting point    182 to 183 °C
 7  COC(=O)c1cc(C(=O)NC2CCCCC2)c2cc(Cc3ccc(F)cc3)cnc2c1O  melting point    212 to 213 °C
 8  CCC(=O)c1cc(N2CCCC2=O)c2cc(Cc3ccc(F)cc3)cnc2c1O  melting point    202 to 203 °C
 9  COC(=O)c1cc(C(=O)NN2CCOCC2)c2cc(Cc3ccc(F)cc3)cnc2c1O  melting point         > 250 °C
10  COC(=O)c1nc(C(=O)N2CCN(C)CC2)c2cc(Cc3ccc(F)cc3)cnc2c1O  melting point    226 to 227 °C
11  COC(=O)c1cc(C(=O)Nc2nccs2)c2cc(Cc3ccc(F)cc3)cnc2c1O  melting point    258 to 259 °C
12  CCN(CCOC)C(=O)c1cc(C(=O)OC)c(O)c2ncc(Cc3ccc(F)cc3)cc12  melting point      90 to 91 °C
13  COC(=O)c1cc(NC(=O)c2ccc(Cl)cc2)c2cc(Cc3ccc(F)cc3)cnc2c1O  melting point    253 to 254 °C
14  CC(=O)N1CCC(OC(=O)c2ncc3cc(Cc4ccc(F)cc4)cnc3c2O)CC1  melting point    163 to 165 °C
15   COC(=O)c1cc(N)c2cc(Cc3ccc(F)cc3)cnc2c1O  melting point    114 to 115 °C
16  COC(=O)c1cc(C(=O)NCCN2CCOCC2)c2cc(Cc3ccc(F)cc3)cnc2c1O  melting point    198 to 199 °C
17  COCCC(=O)Nc1nc(C(=O)OC)c(O)c2ncc(Cc3ccc(F)cc3)cc12  melting point    205 to 206 °C
18  COC(=O)c1cc(C(=O)NCC(=O)N(C)C)c2cc(Cc3ccc(F)cc3)cnc2c1O  melting point    198 to 199 °C
19  COC(=O)c1cc(NC2CCCCC2)c2cc(Cc3ccc(F)cc3)cnc2c1O  melting point  75.5 to 77.5 °C

###

melting point values, listed per item
quantity-kind: melting point

> print(dat)
                                    molecule        recorded.value
 1  NC(=O)c1cc(C(=O)O)c2cc(Cc3ccc(F)cc3)cnc2c1O         212 to 213 °C
 2  COC(=O)c1cc(CN2C(=O)CCCC2=O)c2cc(Cc3ccc(F)cc3)cnc2c1O         154 to 156 °C
 3  CCOCCNC(=O)c1cc(C(=O)OC)c(O)c2ncc(Cc3ccc(F)cc3)cc12         174 to 175 °C
 4  COC(=O)c1cc(C(=O)N2CCSCC2)c2cc(Cc3ccc(F)cc3)cnc2c1O         184 to 185 °C
 5  COC(=O)c1cc(C(=O)OCc2ccccc2)c2cc(Cc3ccc(F)cc3)cnc2c1O         131 to 133 °C
 6  COC(=O)c1nc(NS(=O)(=O)NC(=O)OC(C)C)c2cc(Cc3ccc(F)cc3)cnc2c1O         170 to 172 °C
 7  COC(=O)c1cc(C(C)=O)c2cc(Cc3ccc(F)cc3)cnc2c1O         166 to 168 °C
 8  COC(=O)c1cc(NC(=N)N)c2cc(Cc3ccc(F)cc3)cnc2c1O.Cl     261.5 to 262.5 °C
 9  COC(=O)Cc1cc(C(=O)OC)c(O)c2ncc(Cc3ccc(F)cc3)cc12         168 to 169 °C
10  COC(=O)c1nc(NS(=O)(=O)N(C)C)c2cc(Cc3ccc(F)cc3)cnc2c1O [Compound A-26]         159 to 160 °C
11  COCCC(=O)Nc1cc(C(=O)OC2CCN(C(C)=O)CC2)c(O)c2ncc(Cc3ccc(F)cc3)cc12           89 to 90 °C
12  COCc1cc(C(=O)OC)c(O)c2ncc(Cc3ccc(F)cc3)cc12         110 to 111 °C
13  COC(=O)c1cc(C(=O)NCCN)c2cc(Cc3ccc(F)cc3)cnc2c1O         229 to 230 °C
14  COC(=O)c1cc(C(=O)NN)c2cc(Cc3ccc(F)cc3)cnc2c1O         156 to 157 °C
15  COC(=O)c1cc(NC(C)=O)c2cc(Cc3ccc(F)cc3)cnc2c1O [Compound I-10]         243 to 245 °C
16  CCCOC(=O)c1cc(C(=O)O)c2cc(Cc3ccc(F)cc3)cnc2c1O  249 to 251 °C (dec.)
17  CN(C)C(=O)c1cc(C(=O)O)c2cc(Cc3ccc(F)cc3)cnc2c1O     214.5 to 215.5 °C
18  COC(=O)c1cc(C(=O)NNC=O)c2cc(Cc3ccc(F)cc3)cnc2c1O         249 to 250 °C
19  COC(=O)c1cc(CO)c2cc(Cc3ccc(F)cc3)cnc2c1O [Compound I-117]         142 to 143 °C
20  COC(=O)c1cc(C(=O)O)c2cc(Cc3ccc(F)cc3)cnc2c1O [Compound I-3]         237 to 239 °C
21  CC(=O)NNC(=O)c1cc(C(=O)OC2CCN(C(C)=O)CC2)c(O)c2ncc(Cc3ccc(F)cc3)cc12         129 to 131 °C
22  COCCOC(=O)c1cc(C(=O)NOC)c(O)c2ncc(Cc3ccc(F)cc3)cc12         166 to 168 °C
23  COC(=O)c1cc(C(=O)[O-])c2cc(Cc3ccc(F)cc3)cnc2c1O.[Na+]              > 208 °C
24  COC(=O)c1cc(C#N)c2cc(Cc3ccc(F)cc3)cnc2c1O         178 to 179 °C
